measurementKind: melting point (°C)

>>> df
                                   compound  valueobserved
0  Nc1cc(-c2noc(-c3cnn4c(C(F)(F)F)cc(-c5ccc(Cl)cc5)nc34)n2)ccn1            252
1       CN(C)C(=O)Nc1ccc(Oc2ccc3sncc3c2)cc1            156
2  CC(C)(CC(=O)O)C(Cl)CC(Cl)(Cl)C(F)(F)F (stereo not given)             61
3  CCCCCS(=O)(=O)NC(=O)/C=C/c1ccc(OCCOC)cc1Oc1ncc(Br)cc1C            160

====

Listing of entries alongside the reported melting point.
measurementKind: melting point

>>> print(df.to_string())
                                    compound  valueobserved
 0        O=c1[nH]c2cc(F)c(F)cc2cc1P(=O)(O)O  245 to 252 °C
 1  CSCC(C)Nc1nccc(-c2ccnc(Nc3cccc(F)c3)c2)n1 (stereo unspecified)  104 to 107 °C
 2  C[C@H](Nc1nc(N=[N+]=[N-])nc(Cl)c1-c1c(F)cc(F)cc1F)C(F)(F)F  152 to 154 °C
 3  C[C@H]1CCCC(C)(C)[C@@H]1[C@H](O)c1ccc(C(F)(F)F)cc1    63 to 66 °C
 4  Cn1ccc(-c2sc(NC(=O)c3ccncc3)nc2-c2ccco2)cc1=O  280 to 282 °C
 5  O=C1N(Cc2ccccc2)c2cc(Cl)cc(N3CCNCC3)c2S(=O)(=O)N1Cc1cccc(O)c1  230 to 231 °C
 6             C=Cc1nc(-c2cn(C)c3ccccc23)no1    54 to 55 °C
 7  CCc1ccc2c(c1)C=Cc1oc(C)nc1C2c1cn(-c2ccnc(NCC(=O)Nc3nc(CC(=O)O)cs3)n2)c(=O)[nH]c1=O (stereo unspecified)  205 to 210 °C
 8  CCc1ccccc1NC=C1C(=O)N(c2cccc(NC(=O)OC)c2)N=C1C         229 °C
 9  CSC(C#N)c1cccc(C(=O)c2ccc(Cl)cc2)c1N (stereo unspecified)         122 °C
10  CC(Cc1ccccc1)(NC(=O)OC1CCCCc2ccccc21)C(=O)NCCCCCCCCC(N)=O (stereo unspecified)   98 to 100 °C
11       COC(=O)c1sccc1S(=O)(=O)Nc1onc(C)c1C  113 to 116 °C
12                 O=C(O)CCC(=O)c1cccc(Cl)c1  105 to 107 °C
13                CCOC(=O)c1nc2cnn(CC)c2nc1C    64 to 65 °C
14  Cc1cccc(Cn2ncc3c(N4CCN(C(=O)OC(C)(C)C)CC4)ncnc32)c1  130 to 131 °C
15               Cc1ncc2cccc(CCCCCC(=O)O)n12  170 to 173 °C
16  O=C(Cc1ccccc1)NC(SC(=O)c1ccccc1)C(=O)O (stereo unspecified)  133 to 138 °C
17  COc1ccc(Cl)cc1-c1c(N)c(=O)[nH]c2cc(Cl)cc(Cl)c12  284 to 287 °C
18  CC(=CC(=O)c1ccc(C(=O)N2Cc3cccn3Cc3ccccc32)cc1)N(C)C  183 to 185 °C
19  COc1cc2c(CC(=O)O)c(C)n(C(=O)c3ccccc3)c2cc1F  118 to 120 °C
20             Cc1ccccc1-c1cn2ccc3ccccc3c2n1          93 °C
21              c1cnc(SCc2nc3ccccc3[nH]2)nc1  154 to 155 °C
22           O=C1NCCNC1c1ccc(F)cc1 (racemic)         115 °C
23  O=C1CCC(N2Cc3c(OCc4cccc(CN5CCOCC5)c4)cccc3C2=O)C(=O)N1 (stereo unspecified)  247 to 249 °C
24  COc1ccccc1CC(=O)N1C[C@@H]2[C@H](C1)[C@@](O)(c1ccccc1OC)[C@H](O)CC2(c1ccccc1)c1ccccc1 (racemic)         278 °C
25              CC(C)(C)NS(=O)(=O)Cc1ccccc1N  115 to 117 °C
26  O=C(O)c1cc2cc(Br)cc(Br)c2nc1NC(Cc1ccccc1)C(=O)O (stereo unspecified)  115 to 117 °C
27   COc1ccc(-c2csc(Nc3ccc4ccccc4c3)n2)cc1OC  221 to 224 °C
28  N#CCOc1cccc2c1c1cccc3c1n2C(c1ccccc1)CO3 (stereo unspecified)          61 °C
29  Cc1cccc(-c2ccc(C(=O)N3Cc4cccn4Cc4ccccc43)cc2)c1  128 to 130 °C
30     COc1ccc(-n2c(N)nc3ccccc32)cc1-c1ccco1  218 to 221 °C

These entries and their values trace back to a melting point compilation (Tetko et al.; mined from patent text by program, amines drawn as free bases though some values may be those of a salt).
